Collected INHIBITION values appear next to each entry.
Test system: Plasmodium berghei
Test: Screen against P. berghei liver stage (PbLuc), transformed with Luciferase, at 10uM
Format: functional, HepG2
Conditions: tested at 10 uM
The campaign covered roughly 69,000 compounds. About 8,600 (12%) showed an effect of 50% or more. The entries come from a sample that favours strong results as a whole.
endpointLabel: INHIBITION (%)

| molecule | targetDesc | endpointLabel | reportedValue |
| --- | --- | --- | --- |
| CN1CCN(CCO)C(=O)C12CCN(c1nccs1)CC2 | Plasmodium berghei | INHIBITION | 23.1 |
| CC(NC(=O)CNS(C)(=O)=O)c1ccccc1Oc1ccccc1 (stereo unspecified) | Plasmodium berghei | INHIBITION | 37.1 |
| CC(C)CN1C(=O)CO[C@@H]2CN(C(=O)[C@H]3CCCO3)C[C@H]21 | Plasmodium berghei | INHIBITION | 36.4 |
| NC(=O)c1ccccc1-n1cc(-c2cccc(C(=O)O)c2)cn1 | Plasmodium berghei | INHIBITION | 71.5 |
| NC(=O)c1cc(-n2cc(-c3cccc(C(=O)O)c3)cn2)cs1 | Plasmodium berghei | INHIBITION | 5.17 |
| CC(C)n1nc(CN2CCOCC2)c2c1CN(Cc1ccsc1)C2 | Plasmodium berghei | INHIBITION | -18.2 |
| NC(=O)c1cnn2c(C3CCCN(C4CCOCC4)C3)ccnc12 (stereo unspecified) | Plasmodium berghei | INHIBITION | 10.51 |
| CC(C)CN1C(=O)CO[C@@H]2CN(C(=O)NC(C)C)C[C@H]21 | Plasmodium berghei | INHIBITION | 70.4 |
| CC(C)CN1C(=O)CO[C@@H]2CN(C(=O)N(C)C)C[C@H]21 | Plasmodium berghei | INHIBITION | 29 |
| O=C(c1cccnc1N1CCOCC1)N1CCCC(n2cncn2)C1 (stereo unspecified) | Plasmodium berghei | INHIBITION | 36.1 |
| CC(C)Oc1ncnc2c1CCN(Cc1ccc(F)cc1)CC2 | Plasmodium berghei | INHIBITION | 60.3 |
| CC(C)Oc1ncnc2c1CCN(Cc1ccoc1)CC2 | Plasmodium berghei | INHIBITION | 8.85 |
| CCc1ncnc2c1CCN(Cc1ccc3c(c1)OCO3)CC2 | Plasmodium berghei | INHIBITION | -6.39 |
| Cc1ccc(CNc2cc3c(cc2Cl)NC(=O)CO3)cc1C | Plasmodium berghei | INHIBITION | 56 |
| O=C(Cc1csc(-c2ccoc2)n1)NCCCN1CCCCC1 | Plasmodium berghei | INHIBITION | -55.1 |
| CC(C)(C)c1nc(CNc2cc3c(cc2Cl)NC(=O)CO3)no1 | Plasmodium berghei | INHIBITION | 5.91 |
| O=C(c1ccccc1)N1CCN(C2CCc3ccc(F)cc32)CC1 (stereo unspecified) | Plasmodium berghei | INHIBITION | 49.4 |
| O=C(NCCc1nncn1C1CC1)c1cc2ccccn2c1 | Plasmodium berghei | INHIBITION | -22.3 |
| CN(C)CC1(O)CCN(C(=O)Cc2ccc(Cl)c(Cl)c2)C1 (stereo unspecified) | Plasmodium berghei | INHIBITION | 39.1 |
| O=C(CCc1cc2n(n1)CCN(CCCn1cccc1)C2)N1CCCC1 | Plasmodium berghei | INHIBITION | -1.54 |
| COc1ccc(CN2CCc3ncnc(C4CC4)c3CC2)cc1 | Plasmodium berghei | INHIBITION | 47.4 |
| CC(=O)N1CCCC2(CCN(C(=O)c3ccc(Cl)c(C(F)(F)F)c3)C2)C1 (stereo unspecified) | Plasmodium berghei | INHIBITION | 32.2 |
| CC(C)CC1SCC(=O)Nc2c1cnn2-c1ccc(F)cc1 (stereo unspecified) | Plasmodium berghei | INHIBITION | 28.4 |
| CN(C)CC1(O)CCCN(C(=O)Cc2ccc(Cl)c(Cl)c2)C1 (stereo unspecified) | Plasmodium berghei | INHIBITION | 52.2 |
| CCn1ncc(CN2CCN(C(=O)Cn3cc(Br)c(C)n3)CC2)c1C | Plasmodium berghei | INHIBITION | 34 |
| Cc1cc(CSC2CCCN(c3cnn(C)c3)C2=O)no1 (stereo unspecified) | Plasmodium berghei | INHIBITION | 30.5 |
| CC(=O)N1CCC2(CCN(C(=O)c3ccc(Cl)c(C(F)(F)F)c3)C2)C1 (stereo unspecified) | Plasmodium berghei | INHIBITION | 50.9 |
| CC(C)n1[nH]c(=O)c2c1NC(=O)CC2c1ccc(C#N)cc1 (stereo unspecified) | Plasmodium berghei | INHIBITION | -1.04 |
| COCCN1CCC(C(=O)N(C)CCOc2ccc(C)cc2Cl)C1 (stereo unspecified) | Plasmodium berghei | INHIBITION | 59.3 |
| NC(=O)N1CCCN(C2CCc3ccc(F)cc32)CC1 (stereo unspecified) | Plasmodium berghei | INHIBITION | 84.2 |
| CCc1cc(=O)n(CC(=O)N2CCCCC2)c(-c2cccc(F)c2)n1 | Plasmodium berghei | INHIBITION | 44.1 |
| O=C(c1cc(F)ccc1O)N1CCN(C2CCOCC2)CC1 | Plasmodium berghei | INHIBITION | 3.84 |
| CC(C)CN1C(=O)CO[C@@H]2CN(C(=O)N3CCOCC3)C[C@H]21 | Plasmodium berghei | INHIBITION | 29 |
| CN(C)C(=O)c1cn[nH]c1C1(C)CCCN(Cc2ccccn2)C1 (stereo unspecified) | Plasmodium berghei | INHIBITION | 40 |
| CC(=O)N1CCC2(CCN(C(=O)c3ccc(Cl)c(C(F)(F)F)c3)CC2)C1 | Plasmodium berghei | INHIBITION | 51.2 |
| O=C(NCCCn1cccn1)c1nc2ccccc2[nH]1 | Plasmodium berghei | INHIBITION | 15.7 |
| Cc1nn(CC(=O)N2CCN(Cc3cnn(C)c3C)CC2)cc1Br | Plasmodium berghei | INHIBITION | -5.92 |
| Cn1c(CN2CCCC(N3CCNC3=O)C2)cc(=O)n(C)c1=O (stereo unspecified) | Plasmodium berghei | INHIBITION | 31.4 |
| CN(C)C(=O)N1CC[C@H]2[C@H]1CCN2c1nncs1 | Plasmodium berghei | INHIBITION | 2.4 |
| O=C(Nc1ccccc1)C1=NOC2(CCCN(C(=O)N3CCCC3)C2)C1 (stereo unspecified) | Plasmodium berghei | INHIBITION | -8.28 |
| O=S(=O)(Cc1cc(-c2ccccc2)no1)CC1CCCO1 (stereo unspecified) | Plasmodium berghei | INHIBITION | -73.1 |
| CN1CCN(Cc2ccncc2)C(=O)C12CCN(c1nccs1)CC2 | Plasmodium berghei | INHIBITION | 58.5 |
| CCC(=O)Nc1nnc2n(Cc3cccc(OC)c3)[nH]c(C)c1-2 | Plasmodium berghei | INHIBITION | -31 |
| Cc1cc(C)n(CC2CCCN2C(=O)c2cccn3ccnc23)n1 (stereo unspecified) | Plasmodium berghei | INHIBITION | 15.32 |
| COCc1ccc(C(=O)N2CCC(Oc3ccccc3OC)CC2)s1 | Plasmodium berghei | INHIBITION | -3.83 |
| CCc1ncnc2c1CCN(Cc1ccc(OC)cc1)CC2 | Plasmodium berghei | INHIBITION | 26.7 |

The reported numbers originate from ChEMBL document CHEMBL4513216.
